test system: barnyardgrass (Echinochloa crus-galli); experiment: Test C preemergence, visual plant response rating; type: in vivo; settings: Test C, 31 g ai/ha, 0 is no effect, 100 is complete control
quantityMeasured: Barnyardgrass plant response rating (0 to 100 scale)
Format: numeric value only, no unit, no commentary.

Worked set:
CO/N=C(\c1ccc(F)c(Cl)c1)c1c(O)c(C)nn(C)c1=O 0
Cc1nn(C)c(=O)c(C(=NOCC2CC2)c2cc(Cl)cc(Cl)c2Cl)c1O 0
CO/N=C(/c1c(O)c(C)nn(C)c1=O)c1cccc2cc(Cl)ccc12 40
CO/N=C(/c1c(O)c(Cl)nn(C)c1=O)c1ccc(F)c2ccccc12 20

With those in mind, consider the next molecule.
Please give the documented Barnyardgrass plant response rating (0 to 100 scale) of C#CCO/N=C(\c1cc(Cl)cc(Cl)c1Cl)c1c(O)c(C)nn(C)c1=O
0

====

test system: ragweed (common ragweed, Ambrosia elatior); assay: Test A preemergence, visual plant response rating; type: in vivo; conditions: 500 g ai/ha Preemergence; approx. 10 days
Please assign No whenever Ragweed plant response rating (0 to 100 scale) is at or above 80, and Yes whenever it is below.

compound	classAssignment
C=CCc1ccccc1C(=NOC)c1c(O)c(C)nn(C)c1=O [Compound 122]	Yes
CCO/N=C(/c1cccc(Cl)c1)c1c(O)c(C)nn(C)c1=O	No
C=CCO/N=C(\c1c(O)c(C)nn(C)c1=O)c1ccc(F)c2ccccc12	No

Consider CCCO/N=C(/c1c(O)c(C)nn(C)c1=O)c1cccc2ccccc12 . Does its Ragweed plant response rating (0 to 100 scale) lie strictly below 80?
No

Consider CO/N=C(\c1cccc(C(F)(F)F)c1)c1c(O)c(C)nn(C)c1=O . Does its Ragweed plant response rating (0 to 100 scale) lie strictly below 80?
Yes

Consider CO/N=C(/c1ccccc1C#N)c1c(O)c(C)nn(C)c1=O . Does its Ragweed plant response rating (0 to 100 scale) lie strictly below 80?
Yes

Consider CON=C(c1cccc(C(F)(F)F)c1)c1c(O)c(C)nn(C)c1=O . Does its Ragweed plant response rating (0 to 100 scale) lie strictly below 80?
Yes

====

Catalogue of Ragweed plant response rating values
system: ragweed (common ragweed, Ambrosia elatior); test: Test A postemergence, visual plant response rating; assay type: in vivo; settings: Postemergence, 125 g ai/ha; 0 to 100 scale (0 no effect, 100 complete control)
Format: numeric value only, no unit, no commentary.

Worked set:
molecule	targetSystem	Ragweed plant response rating
CON=C(c1c(Cl)ccc(C)c1F)c1c(O)c(C)nn(C)c1=O	ragweed (common ragweed, Ambrosia elatior)	40
CO/N=C(\c1ccccc1C#N)c1c(O)c(C)nn(C)c1=O	ragweed (common ragweed, Ambrosia elatior)	10
CON=C(c1cccc(Cl)c1)c1c(O)c(C)n[nH]c1=O (mixture of isomers)	ragweed (common ragweed, Ambrosia elatior)	0
CCCc1ccccc1/C(=N\OC)c1c(O)c(C)nn(C)c1=O	ragweed (common ragweed, Ambrosia elatior)	60

With those in mind, consider the next molecule.
Please give the documented Ragweed plant response rating of CO/N=C(/c1c(O)c(C)nn(C)c1=O)c1ccc(F)c2ccccc12
90

====

test system: wheat (Triticum aestivum); test: Test A postemergence, visual plant response rating; type: in vivo; settings: 500 g ai/ha, postemergence; 0 is no effect, 100 is complete control
Catalogue of Wheat plant response rating (0 to 100 scale) values
Format: numeric value only, no unit, no commentary.

Please give the documented Wheat plant response rating (0 to 100 scale) of CCO/N=C(\c1cccc(Cl)c1)c1c(O)c(C)nn(C)c1=O
0

Please give the documented Wheat plant response rating (0 to 100 scale) of CCO/N=C(\c1c(O)c(C)nn(C)c1=O)c1cccc2ccccc12
0

====

system: barnyardgrass (Echinochloa crus-galli); assay: Test C preemergence, visual plant response rating; type: in vivo; conditions: Test C, 31 g ai/ha, 0 is no effect, 100 is complete control
Parameter threshold = 20. Response is true (1) when Barnyardgrass plant response rating (0 to 100 scale) meets or exceeds it, else false (0).

Study these solved cases before continuing.
C#CCO/N=C(\c1c(O)c(C)nn(C)c1=O)c1cc(Cl)cc2ccccc12 true (1)
Cc1nn(C)c(=O)c(/C(=N/OCCO)c2cccc3cc(Cl)ccc23)c1O false (0)
Cc1nn(C)c(=O)c(C(=NOC(C)C)c2cc(Cl)cc(Cl)c2F)c1O true (1)
CO/N=C(\c1c(O)c(Cl)nn(C)c1=O)c1cc(Br)cc2ccccc12 true (1)
CON=C(c1cc(Cl)cc(Cl)c1Cl)c1c(O)c(C)nn(C)c1=O true (1)

Is it the case that CON=C(c1cc(Cl)cc(OC)c1)c1c(O)c(C)nn(C)c1=O has Barnyardgrass plant response rating (0 to 100 scale) reaching or exceeding 20?
true (1)

Is it the case that CON=C(c1cc(Cl)cc(F)c1Cl)c1c(O)c(C)nn(C)c1=O has Barnyardgrass plant response rating (0 to 100 scale) reaching or exceeding 20?
true (1)

Is it the case that CO/N=C(\c1c(OC(C)=O)c(Cl)nn(C)c1=O)c1cc(Br)cc2ccccc12 has Barnyardgrass plant response rating (0 to 100 scale) reaching or exceeding 20?
true (1)

====

tested on: kochia (Bassia scoparia); assay: Test C preemergence, visual plant response rating; format: in vivo; details: 125 g ai/ha
Please assign NO whenever Kochia plant response rating (0 to 100 scale) is at or above 30, and YES whenever it is below.

CON=C(c1cc(Cl)cc(Cl)c1)c1c(O)c(C)nn(C)c1=O NO

Consider Cc1nn(C)c(=O)c(/C(=N/OCc2ccccc2)c2ccc(F)c3ccccc23)c1O . Does its Kochia plant response rating (0 to 100 scale) lie strictly below 30?
YES

Consider C#CCO/N=C(\c1ccc(Cl)c(Cl)c1)c1c(O)c(C)nn(C)c1=O . Does its Kochia plant response rating (0 to 100 scale) lie strictly below 30?
NO

Consider CO/N=C(/c1cc(Cl)cc(OC)c1)c1c(O)c(C)nn(C)c1=O . Does its Kochia plant response rating (0 to 100 scale) lie strictly below 30?
NO

Consider Cc1nn(C)c(=O)c(/C(=N\OCc2ccccc2)c2cccc(Cl)c2)c1O . Does its Kochia plant response rating (0 to 100 scale) lie strictly below 30?
YES

Consider CON=C(c1cc(Cl)cc(OC)c1)c1c(O)c(C)nn(C)c1=O . Does its Kochia plant response rating (0 to 100 scale) lie strictly below 30?
NO

Consider CON=C(c1c(OC(C)=O)c(Cl)nn(C)c1=O)c1ccc(F)c2ccccc12 . Does its Kochia plant response rating (0 to 100 scale) lie strictly below 30?
YES

Consider C#CCON=C(c1ccc(Cl)c(Cl)c1)c1c(O)c(C)nn(C)c1=O . Does its Kochia plant response rating (0 to 100 scale) lie strictly below 30?
YES

====

tested on: kochia (Kochia scoparia); assay: Test A postemergence, visual plant response rating; format: in vivo; details: 500 g ai/ha, postemergence; 0 is no effect, 100 is complete control
quantityMeasured: Kochia plant response rating (0 to 100 scale)
Format: numeric value only, no unit, no commentary.

Worked set:
compound	valueObserved
CO/N=C(\c1cccc(C)c1C)c1c(O)c(C)nn(C)c1=O	30
CON=C(c1c(O)c(C)nn(C)c1=O)c1csc2ccccc12 (single isomer, unassigned)	0
CO/N=C(\c1ccccc1C(C)C)c1c(O)c(C)nn(C)c1=O	60
C=CCON=C(c1c(O)c(C)nn(C)c1=O)c1cc(Br)cc2ccccc12	60
CO/N=C(\c1ccsc1C)c1c(O)c(C)nn(C)c1=O	20
CON=C(c1cccc(C)c1F)c1c(O)c(C)nn(C)c1=O	80

Please give the documented Kochia plant response rating (0 to 100 scale) of CCC(=O)Oc1c(C)nn(C)c(=O)c1C(=NOC)c1cccc2ccccc12
90

Please give the documented Kochia plant response rating (0 to 100 scale) of CO/N=C(\c1cc(C)ccc1Cl)c1c(O)c(C)nn(C)c1=O
50

Please give the documented Kochia plant response rating (0 to 100 scale) of C=CCc1ccccc1C(=NOC)c1c(O)c(C)nn(C)c1=O [Compound 122]
50

====

system: Italian ryegrass (Lolium multiflorum); experiment: Test A postemergence, visual plant response rating; assay type: in vivo; conditions: Postemergence, 125 g ai/ha; 0 to 100 scale (0 no effect, 100 complete control)
Catalogue of Ryegrass, Italian plant response rating values
Format: numeric value only, no unit, no commentary.

compound	targetSystem	Ryegrass, Italian plant response rating
CON=C(c1cc(Cl)ccc1Cl)c1c(O)c(C)nn(C)c1=O [Compound 98]	Italian ryegrass (Lolium multiflorum)	80
CCO/N=C(/c1c(O)c(C)nn(C)c1=O)c1cc(Br)cc2ccccc12 [Compound 113]	Italian ryegrass (Lolium multiflorum)	80
CON=C(c1c(O)c(C)nn(C)c1=O)c1csc2ccccc12 (single isomer, unassigned) [Compound 45]	Italian ryegrass (Lolium multiflorum)	0
CO/N=C(\c1cc(C(F)(F)F)ccc1Cl)c1c(O)c(C)nn(C)c1=O [Compound 54]	Italian ryegrass (Lolium multiflorum)	40
CON=C(c1c(OC(C)=O)c(C)nn(C)c1=O)c1cccc2ccccc12 [Compound 120]	Italian ryegrass (Lolium multiflorum)	30
CCCO/N=C(\c1c(O)c(C)nn(C)c1=O)c1cccc2ccccc12 [Compound 80]	Italian ryegrass (Lolium multiflorum)	20
CCO/N=C(\c1cccc(C)c1C)c1c(O)c(C)nn(C)c1=O [Compound 25]	Italian ryegrass (Lolium multiflorum)	10
CO/N=C(/c1cccc(C)c1)c1c(O)c(C2CC2)nn(C)c1=O [Compound 28]	Italian ryegrass (Lolium multiflorum)	0

Please give the documented Ryegrass, Italian plant response rating of CO/N=C(/c1c(O)c(C)nn(C)c1=O)c1ccc(F)c2ccccc12 [Compound 75]
90
